- subject of test: T1, EsCas13d, nuclease-dead (Eubacterium siraeum, UniProt B0MS50, R295A;H300A;R849A;H854A)
- T1 sequence: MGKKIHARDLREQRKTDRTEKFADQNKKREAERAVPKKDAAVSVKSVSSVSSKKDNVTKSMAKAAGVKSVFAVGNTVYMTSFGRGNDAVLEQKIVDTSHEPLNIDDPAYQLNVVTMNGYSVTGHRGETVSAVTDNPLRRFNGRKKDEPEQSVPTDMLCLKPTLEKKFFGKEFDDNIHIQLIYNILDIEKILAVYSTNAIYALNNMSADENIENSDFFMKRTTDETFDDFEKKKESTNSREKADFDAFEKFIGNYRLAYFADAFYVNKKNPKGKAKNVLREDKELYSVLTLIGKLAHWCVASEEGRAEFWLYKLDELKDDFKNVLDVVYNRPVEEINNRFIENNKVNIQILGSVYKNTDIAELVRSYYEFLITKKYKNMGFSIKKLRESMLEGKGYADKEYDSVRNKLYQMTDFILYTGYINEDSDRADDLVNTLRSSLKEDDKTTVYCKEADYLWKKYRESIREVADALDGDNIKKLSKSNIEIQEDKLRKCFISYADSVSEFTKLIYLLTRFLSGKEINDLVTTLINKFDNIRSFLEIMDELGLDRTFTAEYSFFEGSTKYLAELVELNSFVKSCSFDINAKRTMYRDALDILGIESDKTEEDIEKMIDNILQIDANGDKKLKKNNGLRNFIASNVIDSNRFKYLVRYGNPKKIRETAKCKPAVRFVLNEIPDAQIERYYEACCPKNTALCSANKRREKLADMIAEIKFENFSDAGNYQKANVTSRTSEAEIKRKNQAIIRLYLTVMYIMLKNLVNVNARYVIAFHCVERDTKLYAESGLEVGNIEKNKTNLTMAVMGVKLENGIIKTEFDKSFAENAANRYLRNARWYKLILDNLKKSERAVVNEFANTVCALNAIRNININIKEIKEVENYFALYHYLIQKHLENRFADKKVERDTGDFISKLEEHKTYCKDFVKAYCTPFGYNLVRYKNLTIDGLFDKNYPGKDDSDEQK
- test details: crRNA (strand 1, pre-loaded); Mg2+; 40 mM Tris-HCl pH 7.5, 150 mM NaCl, 6 mM MgCl2, 1 mM DTT, 0.1% Tween-20, 0.2 mg/ml BSA; 25 C; 10 min per concentration, then washed
- protocol conditions: tags: His6-TwinStrep-SUMO cleaved; N-terminal SNAP kept (SNAP-Surface 488); label: 3' end held by stalled T7 RNA polymerase
property: pKd
# pKd is unitless: minus log10 of the molar concentration; print number only

Example cases with answers are listed next.
- binder: "target 2 MT 5'PFS AAC 3'PFS CCA (mixed) RNA 1: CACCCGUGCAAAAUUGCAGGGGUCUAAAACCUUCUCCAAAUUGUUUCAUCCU RNA 2: GGGAAUGGAUCCACAUCUACGAAUUCAACAGGAUGAAACAAUUUGGAGAAGCCAAGAUCGGAAGAGCACACGU"
  quantitative readout: 7.89
- binder: "target 2 MT 5'PFS CAC 3'PFS AUC (mixed) RNA 1: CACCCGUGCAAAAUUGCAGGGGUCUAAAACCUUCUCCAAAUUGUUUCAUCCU RNA 2: GGGAAUGGAUCCACAUCUACGAAUUCCACAGGAUGAAACAAUUUGGAGAAGAUCAGAUCGGAAGAGCACACGU"
  quantitative readout: 8.70

Quick one: pKd of target 3 U2C,C6U (mixed) RNA 1: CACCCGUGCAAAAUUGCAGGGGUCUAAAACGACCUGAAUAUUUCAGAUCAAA RNA 2: GGGAAUGGAUCCACAUCUACGAAUUCGUUUUUGAUCUGAAAUAUUUAGGCCUGCAGAUCGGAAGAGCACACGU ?
7.28

Quick one: pKd of target 2 MT 5'PFS AGC 3'PFS CCG (mixed) RNA 1: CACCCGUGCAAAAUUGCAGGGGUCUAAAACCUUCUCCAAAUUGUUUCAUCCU RNA 2: GGGAAUGGAUCCACAUCUACGAAUUCAGCAGGAUGAAACAAUUUGGAGAAGCCGAGAUCGGAAGAGCACACGU ?
8.03
